Cited source: paper PMC6561244

target: UniProtKB Q8LPI7
Sequence (Q8LPI7 whole entry): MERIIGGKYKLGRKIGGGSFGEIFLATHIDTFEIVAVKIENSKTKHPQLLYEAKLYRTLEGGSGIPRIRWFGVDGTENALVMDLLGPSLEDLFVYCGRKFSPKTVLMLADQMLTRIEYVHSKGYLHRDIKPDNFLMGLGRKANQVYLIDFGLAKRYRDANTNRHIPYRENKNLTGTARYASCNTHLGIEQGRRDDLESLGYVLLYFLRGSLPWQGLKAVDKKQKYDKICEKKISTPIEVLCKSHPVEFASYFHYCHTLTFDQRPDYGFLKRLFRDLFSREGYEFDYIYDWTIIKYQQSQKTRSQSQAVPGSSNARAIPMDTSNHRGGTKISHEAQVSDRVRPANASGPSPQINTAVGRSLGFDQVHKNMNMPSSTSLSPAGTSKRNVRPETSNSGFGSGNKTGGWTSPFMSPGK

- MOLECULE: "O=C1NCCc2[nH]c(-c3ccncc3)cc21 [PHA767491]"
  IC50: "~5 µM"
